All values here come from paper PMC4648982.

target: jack bean urease (Canavalia ensiformis, UniProt P07374); experiment: biochemical
Sequence (P07374 whole entry, looked up): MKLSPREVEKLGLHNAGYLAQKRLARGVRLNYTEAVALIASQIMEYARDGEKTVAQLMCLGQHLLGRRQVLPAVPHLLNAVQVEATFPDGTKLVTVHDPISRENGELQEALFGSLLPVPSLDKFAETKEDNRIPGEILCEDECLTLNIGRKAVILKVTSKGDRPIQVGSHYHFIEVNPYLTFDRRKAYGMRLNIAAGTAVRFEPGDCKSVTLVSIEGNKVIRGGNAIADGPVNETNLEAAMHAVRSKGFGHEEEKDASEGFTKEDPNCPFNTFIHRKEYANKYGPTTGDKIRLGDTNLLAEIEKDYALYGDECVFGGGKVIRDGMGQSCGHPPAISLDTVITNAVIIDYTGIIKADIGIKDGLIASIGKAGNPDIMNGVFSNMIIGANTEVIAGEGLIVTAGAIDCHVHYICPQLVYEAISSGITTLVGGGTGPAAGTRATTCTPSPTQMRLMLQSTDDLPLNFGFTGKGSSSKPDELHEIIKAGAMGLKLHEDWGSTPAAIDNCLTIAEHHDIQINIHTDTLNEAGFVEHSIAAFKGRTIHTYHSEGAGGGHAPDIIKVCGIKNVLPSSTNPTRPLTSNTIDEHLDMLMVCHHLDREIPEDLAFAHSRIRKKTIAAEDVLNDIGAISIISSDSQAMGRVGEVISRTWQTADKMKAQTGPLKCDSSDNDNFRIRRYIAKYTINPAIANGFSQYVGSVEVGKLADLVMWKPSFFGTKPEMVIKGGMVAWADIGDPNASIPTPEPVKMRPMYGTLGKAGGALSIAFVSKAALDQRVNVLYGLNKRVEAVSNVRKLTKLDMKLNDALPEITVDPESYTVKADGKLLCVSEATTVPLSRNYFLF
pIC50: −log10 of the molar value.
reportedProperty: pIC50

In [3]: df
Out[3]:
                                   compound  reportedproperty  recordedvalue
0  CC1(C)CC(=O)C(C(C2=C(O)CC(C)(C)CC2=O)c2ccccc2)=C(O)C1 [Compound 5a]             pIC50           4.13
1  CC1(C)CC(=O)C(C(C2=C(O)CC(C)(C)CC2=O)c2ccc([N+](=O)[O-])cc2)=C(O)C1 [Compound 5f]             pIC50           3.97
2  O=c1[nH]c(O)c(C(c2ccc(Cl)cc2)c2c(O)[nH]c(=O)[nH]c2=O)c(=O)[nH]1 [Compound 4j]             pIC50           4.65
3  Cn1c(O)c(C(C2=C(O)CC(C)(C)CC2=O)c2ccccc2)c(=O)n(C)c1=O (stereo not shown) [Compound 4m]             pIC50           4.41
